targetUnderTest: PPARα (Homo sapiens, UniProt Q07869)
Sequence (Q07869 whole entry): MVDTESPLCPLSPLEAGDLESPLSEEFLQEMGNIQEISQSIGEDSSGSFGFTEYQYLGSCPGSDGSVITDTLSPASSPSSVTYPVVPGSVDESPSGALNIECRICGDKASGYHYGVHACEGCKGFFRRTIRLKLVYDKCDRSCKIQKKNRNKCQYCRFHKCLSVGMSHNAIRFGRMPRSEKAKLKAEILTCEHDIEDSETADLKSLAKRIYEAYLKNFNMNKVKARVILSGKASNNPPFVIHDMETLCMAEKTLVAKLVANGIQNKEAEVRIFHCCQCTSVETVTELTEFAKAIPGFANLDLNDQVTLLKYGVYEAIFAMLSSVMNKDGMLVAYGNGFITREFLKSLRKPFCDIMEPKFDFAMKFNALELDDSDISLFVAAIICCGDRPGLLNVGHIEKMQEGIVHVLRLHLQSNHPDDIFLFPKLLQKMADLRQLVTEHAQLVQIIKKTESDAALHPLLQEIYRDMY
protocolDetails: PPARα assays
assayMetric: Activity in PPARα assays

Task item: Please report the recorded Activity in PPARα assays for O=C(O)C(F)(F)C(F)(F)C(F)(F)C(F)(F)C(F)(F)C(F)(F)C(F)(F)F .
Reply: active

Task item: What do you have for CCOC(=O)C(C)OC(=O)c1cc(Oc2ccc(C(F)(F)F)cc2Cl)ccc1[N+](=O)[O-] (stereo not shown) ?
Reply: active

Task item: Thanks! And CCCCC(CC)COC(=O)c1ccccc1C(=O)OCC(CC)CCCC (stereo not shown) [diethylhexyl phthalate] ?
Reply: active

Reference source: paper PMC2854724
